measurementTarget: Env of HIV-1 strain 231965.c1 (HIV-1)
experimentSummary: cell-based or functional assay
readoutType: neutralization IC50

binder="γ59κ61 (antibody, V domains shown) VH: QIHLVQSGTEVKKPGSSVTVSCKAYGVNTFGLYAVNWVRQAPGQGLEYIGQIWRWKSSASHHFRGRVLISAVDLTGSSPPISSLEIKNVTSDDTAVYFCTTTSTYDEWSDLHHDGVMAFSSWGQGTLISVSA VL: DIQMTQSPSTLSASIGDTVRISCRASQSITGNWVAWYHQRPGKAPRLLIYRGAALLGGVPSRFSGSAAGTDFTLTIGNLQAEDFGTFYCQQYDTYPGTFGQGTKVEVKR" readouttype="neutralization IC50" recordedvalue="> 15 µg/mL"
binder="γ20κ3 (antibody, V domains shown) VH: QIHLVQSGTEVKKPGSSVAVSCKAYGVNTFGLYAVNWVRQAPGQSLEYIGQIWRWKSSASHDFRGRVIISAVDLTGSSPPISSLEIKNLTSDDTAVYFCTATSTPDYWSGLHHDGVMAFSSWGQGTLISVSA VL: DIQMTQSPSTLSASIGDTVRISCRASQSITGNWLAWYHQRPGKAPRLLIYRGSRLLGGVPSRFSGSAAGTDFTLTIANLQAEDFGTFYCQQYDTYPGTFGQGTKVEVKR" readouttype="neutralization IC50" recordedvalue="> 15 µg/mL"

Moving on to another binder below.
Exercise: Need neutralization IC50 of γ8κ11 (antibody, V domains shown) VH: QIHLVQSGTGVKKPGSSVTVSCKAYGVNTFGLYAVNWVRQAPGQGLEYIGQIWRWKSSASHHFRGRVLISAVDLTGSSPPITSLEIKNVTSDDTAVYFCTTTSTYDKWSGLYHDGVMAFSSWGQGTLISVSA VL: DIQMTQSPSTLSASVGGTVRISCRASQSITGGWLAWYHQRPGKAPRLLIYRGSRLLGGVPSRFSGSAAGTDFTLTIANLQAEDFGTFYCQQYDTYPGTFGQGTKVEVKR , thanks.
Solution: 2.49 µg/mL
